Values compiled from PubChem BioAssay (NCI).

Experiment: NCI Yeast Anticancer Drug Screen. Data for the rad50 strain (AID 155);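 also: 0% = growth of vehicle-only cultures of the same strain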
Conditions: S. cerevisiae rad50 strain growth inhibition; at 50.0 µM; hits give high values
The panel holds about 79,000 compounds, 15% with a hit somewhere; the sample as a whole holds those more often.
MEASUREMENT NAME: growth inhibition (%)
Report the figure in % without appending any unit label.

INSERT INTO assay_data (compound, measurement_name, experimental_value) VALUES
  ('CC[C@@H](C)C(=O)O[C@H]1[C@H](O)[C@H]2[C@@H](CN3C[C@@H](C)CC[C@H]3[C@@]2(C)O)[C@@H]2C[C@]34O[C@]5(O)[C@@H](OC(=O)[C@@](C)(O)CC)CC[C@@]3(C)[C@@H]5[C@@H](OC(C)=O)[C@@H](OC(C)=O)[C@H]4[C@@]21O', 'growth inhibition', 11.8),
  ('CC(=O)O[C@H]1C(=O)[C@@]2(C)[C@H]([C@H](OC(=O)c3ccccc3)[C@@]3(O)C[C@H](O)C(C)=C1C3(C)C)[C@]1(OC(C)=O)CO[C@@H]1C[C@@H]2O', 'growth inhibition', 8.05),
  ('Cc1ccc(NC(=O)C(=O)C2C(=O)NC(=O)NC2=O)c(C)c1', 'growth inhibition', 13.9),
  ('CC1CC(C)OP(Oc2ccccc2)O1 (stereo not drawn)', 'growth inhibition', -24.6),
  ('O.[Cr+3].[NH2-].[NH2-].[NH2-].[NH2-].[NH2-].[O-][Cl+3]([O-])([O-])O', 'growth inhibition', 16.6),
  ('[Cl][Sn]1([Cl])[CH2]CC[CH2][Sn]([Cl])([Cl])[CH2]CC[CH2]1', 'growth inhibition', 3.4),
  ('c1ccc(-c2c[se]nn2)cc1', 'growth inhibition', 4.65);

Now turn to the next compound.
Quick one: growth inhibition of [O-][Cl+3]([O-])([O-])O.[O-][n+]1c2ccccc2nc2ccccc21.[Zn+2] ?
58.1

* * *

Assay: NCI Yeast Anticancer Drug Screen. Data for the sgs1 mgt1 strain (AID 161);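 also: 0% = growth of cultures given vehicle only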
Conditions: S. cerevisiae sgs1 mgt1 strain, at 50.0 µM, hits give high values
Method: Growth inhibition of yeast strains with defined genetic alterations is measured as a screen for potential anti-cancer activity. Selected strains with alterations in DNA damage repair or cell cycle control were exposed to compounds and growth inhibition was measured relative to vehicle treated controls. The strain used in this assay is sgs1 mgt1
About 79,000 compounds went through this panel and 15% of them were active in at least one assay; those are over-represented in the sample as a whole. The source made the active and inactive calls. No stated cut-off is given here; in the data, active means growth inhibition above about 70%; inactive means the rest.
MEASUREMENT NAME: growth inhibition

INSERT INTO results (compound, experimental_value) VALUES
  ('CC(C)C(O)(C(=O)OCC1=CC[N+]2([O-])CCC(O)C12)C(C)O (stereo not given)', '-9.7% (inactive)');

Quick one: growth inhibition of C/C=C/C(=O)O ?
-24.5% (inactive)

Quick one: growth inhibition of CC(C)(C)Nc1ccccc1.[C-]#[O+].[C-]#[O+].[C-]#[O+].[Cr] ?
-0.55% (inactive)

Quick one: growth inhibition of N.N.N.N.N.NC(=O)c1nn[n-]n1.[Cl-].[Co+3] ?
-9.45% (inactive)

* * *

Experiment: NCI Yeast Anticancer Drug Screen. Data for the mlh1 rad18 strain (AID 175)
Conditions: S. cerevisiae mlh1 rad18 strain growth inhibition; at 50.0 µM; hits give high values
Compounds without any hit were thinned out: in the full panel of roughly 79,000, 15% have a hit.
MEASUREMENT NAME: growth inhibition (%)
Report the figure in % without appending any unit label.

Sample answers from the record:
INSERT INTO assay_data (molecule, measurement_name, units_of_measure, experimental_value) VALUES
  ('O=[N+]([O-])c1cccc([As](=O)(O)c2ccc(O)c([N+](=O)[O-])c2)c1', 'growth inhibition', '%', 4.65),
  ('COc1ccc2c(c1)CCC1C2CCC2(C)C1CCC21CCNP(=O)(N(CCCl)CCCl)O1 (configuration not stated)', 'growth inhibition', '%', 38.7);

Quick one: growth inhibition of N.N.N.N.N.N.[Br-].[Co+3] ?
22.6

Quick one: growth inhibition of COc1cc(C2c3cc4c(cc3OC(O)C2C)OCO4)cc(OC)c1O (configuration not stated) ?
-5.75
